procedure_text: Solubility in ethylene glycol
settings: 85 °C, organic solvent or mixture

# molecule, solubility, µg/mL
rows = [
    ("C[CH2][Ge]([CH2]C)([CH2]C)[c]1ccc2ccccc2c1 [VII, 2-triethylgermane naphthalene]", 4200),
    ("[CH3][Ge]([CH3])([CH3])[c]1ccc2ccccc2c1 [VI, 2-trimethylgermane naphthalene]", 14800),
    ("CCCCCCCC[Si](C)(C)c1ccc2ccccc2c1 [XI, 2-dimethyloctylsilane naphthalene]", 680),
    ("CCCC[Si](C)(C)c1ccc2ccccc2c1 [IX, 2-dimethylbutylsilane naphthalene]", 2100),
]

###

procedure_text: Solubility in ethylene glycol
settings: 20 °C, organic solvent or mixture
readout_name: solubility (µg/mL)

# smiles_str, readout_name, numeric_readout
measured = [
    ("C[CH2][Ge]([CH2]C)([CH2]C)[c]1ccc2ccccc2c1", "solubility", 1900),
    ("[CH3][Ge]([CH3])([CH3])[c]1ccc2ccccc2c1", "solubility", 3400),
    ("CCCCCCCC[Si](C)(C)c1ccc2ccccc2c1", "solubility", 440),
    ("CCCC[Si](C)(C)c1ccc2ccccc2c1", "solubility", 1100),
]

###

procedure_text: Refractive index at 589.3 nm
Format: physicochemical
settings: neat compound
readout_name: Index at 589.3 nm/20° C.

# smiles_str, numeric_readout
rows = [
    ("C[CH2][Ge]([CH2]C)([CH2]C)[c]1ccc2ccccc2c1", 1.58),
    ("[CH3][Ge]([CH3])([CH3])[c]1ccc2ccccc2c1", 1.59),
    ("Fc1cccc2ccccc12", 1.59),
    ("CCCCCCCC[Si](C)(C)c1ccc2ccccc2c1", 1.54),
    ("CCCC[Si](C)(C)c1ccc2ccccc2c1", 1.57),
    ("CCc1ccc2ccccc2c1", 1.61),
    ("c1ccc(Sc2ccc3ccccc3c2)cc1", 1.69),
    ("CCCc1ccc2ccccc2c1", 1.58),
    ("C[Si](C)(C)c1ccc2ccccc2c1", 1.58),
]
